Reference source for all entries: PubChem BioAssay

Method Summary: MELAS cybrid and Rieske KO viability enhancers – cell-based, MELAS cybrids, Rieske KO mouse fibroblasts, CellTiter-Glo, primary screen (AID 1508586);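 note: z relative to plate mean and SD of compound and empty wells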
Stated Conditions: MELAS cybrid survival, low glucose, CellTiter-Glo 48 h
Activity calls are given as the source filed them.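 Rule for the calls: active = mean z-score across replicates of 1.96 or higher in either the MELAS or the Rieske mutant cell line; inactive = the rest.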
One label from this list, please: active, inactive

Req: Hi, sorry to bother you, what did the test record for "Cc1[nH]c2ccccc2c1CCNC(=O)c1cccs1" ?
Resp: inactive

====

Method Summary: BT084 cell growth, single and combined drugs, ICGC_MB145, cisplatin and BGB IC40 combos (AID 1671461);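 note: cells exposed to drugs for 96 hours; 0% = vehicle DMSO and 100% = high DMSO full killing control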
Stated Conditions: BT084 medulloblastoma cells, drug combinations, cisplatin combination, at 0.5 µM, stronger effect = higher value
Record form. Attribute: inhibition. Fill in for each entry.
One number for each entry, in %.

>>> observed_result("CC1OC(n2cc(F)c(=O)[nH]c2=O)C(O)C1O (centres undefined)")
-18.2
>>> observed_result("Cn1cc(-c2cnn3c(N)c(Br)c([C@H]4CCCNC4)nc23)cn1")
16.1
>>> observed_result("N#Cc1ccc(OC2CCC(NC(=O)CCSc3nc4ccccc4c(=O)[nH]3)CC2)cc1 (centres undefined)")
-17.2

Could you now look at the following compound, please?
Req: Quick one: inhibition of "COc1ccc(-c2nc(-c3cc(C(F)(F)F)cc(C(F)(F)F)c3)n(Cc3ccc(C(N)=O)cc3)c2-c2ccc(OC)cc2)cc1" ?
Resp: -5.41
